Assign Wnt reporter firefly/Renilla luciferase ratio to each entry below.
- Tested on: HEK293T (UBE3A T485A transfected, BAR Wnt reporter)
- Procedure Text: Wnt reporter firefly/Renilla luciferase ratio relative to plate median (fold (linear ratio)); higher = more Wnt/beta-catenin reporter activation
- Setup Conditions: concentration: 10 uM; 24 h
Over roughly 1,100 compounds, “Wnt reporter firefly/Renilla luciferase ratio relative to plate median” has its median near 1.1; the highest 2% begin near 1.6. The sample as a whole holds a higher share of the highest values than the screen did.
Numbers only.

CC(C)CCO: 1.1
Cc1ncc([C@@H](CCCCCCc2ccc3c(n2)NCCC3)CC(=O)O)cn1: 1.78
CCCCCCCC[Si](OCC)(OCC)OCC: 1.05
CCOC(N)=O: 1.11
CNCc1ccc(NC(=O)c2c[nH]c3c2C(=O)CCC3)cc1: 1.69

Please go through the list and note Wnt reporter firefly/Renilla luciferase ratio for each compound.
1. C=CC(=C)CCC=C(C)C
2. CCN(Cc1c(F)cccc1Cl)c1c([N+](=O)[O-])cc(C(F)(F)F)cc1[N+](=O)[O-]
3. Sc1nc2ccccc2s1
4. CCO[Si](CCCNC(N)=O)(OCC)OCC [1-[3-(Triethoxysilyl)propyl]urea]

[1.02, 0.843, 1.3, 1.36]

Could you tell me which Wnt reporter firefly/Renilla luciferase ratio is on file for `O=C(N[C@@H](c1ccccc1)[C@@H]1CCCCN1)c1cccc(C(F)(F)F)c1Cl` ?
0.921

Taken from the supplement of paper PMC9254222.
